The measured values listed here are drawn from ChEMBL document CHEMBL3600302.

Entries and their Ratio Ki values follow.
Species on record: Homo sapiens
Assay: Selectivity ratio of Ki for human microsomal CYP1B1 to Ki for human microsomal CYP1A2
PROPERTY_LABEL: Ratio Ki

structure_smiles_string=O=c1cc(-c2ccccc2)oc2c1ccc1ncccc12 property_label="Ratio Ki" test_value=1.8
structure_smiles_string=Cc1cc2c(ccc3c(-c4ccccc4)c(C)c(=O)oc32)o1 property_label="Ratio Ki" test_value=6.1
structure_smiles_string=O=c1cc(-c2ccccc2)oc2c3c(ccc12)OCO3 property_label="Ratio Ki" test_value=5.3
structure_smiles_string=Cc1cc2c(cc(O)c3c(=O)cc(-c4ccccc4)oc32)o1 property_label="Ratio Ki" test_value=2.3
structure_smiles_string=Cc1cc(=O)oc2c1ccc1ncccc12 property_label="Ratio Ki" test_value=3.3
structure_smiles_string=Cc1cc2c(ccc3c(=O)cc(-c4ccccc4)oc32)o1 property_label="Ratio Ki" test_value=6

----------
Target: Cytochrome P450 1A1 (Homo sapiens, UniProt P04798)
Sequence (P04798 whole entry): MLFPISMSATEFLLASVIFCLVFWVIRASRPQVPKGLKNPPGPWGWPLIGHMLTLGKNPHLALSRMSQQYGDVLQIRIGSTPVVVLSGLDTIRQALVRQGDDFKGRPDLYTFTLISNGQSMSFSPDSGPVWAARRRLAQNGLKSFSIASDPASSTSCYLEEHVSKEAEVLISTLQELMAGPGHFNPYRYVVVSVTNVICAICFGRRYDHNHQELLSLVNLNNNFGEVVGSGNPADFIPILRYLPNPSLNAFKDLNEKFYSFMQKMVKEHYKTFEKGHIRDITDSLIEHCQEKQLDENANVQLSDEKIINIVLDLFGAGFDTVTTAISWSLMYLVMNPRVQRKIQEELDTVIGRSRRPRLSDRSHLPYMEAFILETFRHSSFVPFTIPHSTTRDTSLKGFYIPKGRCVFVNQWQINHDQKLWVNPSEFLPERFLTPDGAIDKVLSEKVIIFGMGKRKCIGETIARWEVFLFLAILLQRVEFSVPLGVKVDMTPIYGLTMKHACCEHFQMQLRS
pKi: −log10 of the molar value.
Class TRUE: pKi at least 5. Class FALSE: pKi below 5.

structure_smiles_string=O=c1cc(-c2ccccc2)oc2c3c(cc(O)c12)OCC=C3 label=TRUE
structure_smiles_string=Cc1c(-c2ccccc2)c2ccc3c(c2oc1=O)C=CCO3 label=FALSE
structure_smiles_string=Cc1cc2c(ccc3c(C)cc(=O)oc32)o1 label=FALSE
structure_smiles_string=O=c1cc(C(F)(F)F)c2ccc3c(c2o1)C=CCO3 label=FALSE
structure_smiles_string=Cc1cc(=O)oc2c3c(ccc12)OCC=C3 label=FALSE
structure_smiles_string=Cc1cc2c(ccc3c(C(F)(F)F)cc(=O)oc32)o1 label=FALSE
structure_smiles_string=O=c1cc(-c2ccccc2)oc2c3c(ccc12)OCO3 label=TRUE

----------
Target: UniProt:Q16678
Sequence (Q16678 whole entry): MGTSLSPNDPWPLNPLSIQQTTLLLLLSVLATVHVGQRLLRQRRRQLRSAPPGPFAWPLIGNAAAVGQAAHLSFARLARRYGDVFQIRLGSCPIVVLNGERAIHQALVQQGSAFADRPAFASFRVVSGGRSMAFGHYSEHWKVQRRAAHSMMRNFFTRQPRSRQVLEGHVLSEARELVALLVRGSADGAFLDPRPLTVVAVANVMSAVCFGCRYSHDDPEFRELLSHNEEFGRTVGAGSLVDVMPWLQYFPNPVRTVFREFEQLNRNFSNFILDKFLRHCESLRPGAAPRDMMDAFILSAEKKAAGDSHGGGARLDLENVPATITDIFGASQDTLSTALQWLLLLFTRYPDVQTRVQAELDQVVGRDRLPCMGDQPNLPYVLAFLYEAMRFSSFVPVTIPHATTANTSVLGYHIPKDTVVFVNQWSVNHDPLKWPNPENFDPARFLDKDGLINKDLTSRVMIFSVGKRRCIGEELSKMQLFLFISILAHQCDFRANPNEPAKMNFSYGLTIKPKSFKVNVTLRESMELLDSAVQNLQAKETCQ
pKi: −log10 of the molar value.
Each entry gets no (0) if its pKi stays under 5, and yes (1) if its pKi is 5 or above.

structure_smiles_string=O=c1cc(-c2ccccc2)c2ccc3c(c2o1)C=CCO3 target_or_test_system=UniProt:Q16678 label="yes (1)"
structure_smiles_string=O=c1cc(C(F)(F)F)c2ccc3c(c2o1)C=CCO3 target_or_test_system=UniProt:Q16678 label="no (0)"
structure_smiles_string=Cc1cc(=O)oc2c1ccc1ncccc12 target_or_test_system=UniProt:Q16678 label="no (0)"
structure_smiles_string=Cc1c(-c2ccccc2)c2ccc3c(c2oc1=O)C=CCO3 target_or_test_system=UniProt:Q16678 label="no (0)"
structure_smiles_string=O=c1cc(-c2ccccc2)oc2c3c(ccc12)OCO3 target_or_test_system=UniProt:Q16678 label="yes (1)"
structure_smiles_string=Cc1cc2c(ccc3c(C(F)(F)F)cc(=O)oc32)o1 target_or_test_system=UniProt:Q16678 label="no (0)"
